test system: Notch signalling; test: Notch reporter assay (12xCSL firefly luciferase / renilla luciferase, HEK293T Notch1ΔE reporter cell line clone #A1-11); format: cell-based; conditions: 14p Notch assay DR; averaged when replicate measurements were available; read-out: averaged IC50s
metric: IC50 (nM)

[
  {
    "compound": "NC(=O)[C@@H](CC1CC1)[C@@H](CCC(F)(F)F)C(=O)N[C@H]1N=C(c2ccccc2)c2cccc(F)c2NC1=O [BMS-983970, reference compound]",
    "metric": "IC50",
    "reading.unit": "nM",
    "data.value": 3.6
  }
]

* * *

system: Notch signalling; assay: Notch reporter assay (12xCSL firefly luciferase / renilla luciferase, HEK293T Notch1ΔE reporter cell line clone #A1-11); format: cell-based; settings: 10µM; 3-point DR confirmation screen, Notch reporter assay
Below: a set of entries, each annotated with reported inhibitor ratio in % of DMSO in 3 point DR.
metric: inhibitor ratio in % of DMSO in 3 point DR

[
  {
    "compound": "c1ccc2c(c1)CCN(c1nc3cc4c(cc3s1)OCCO4)C2",
    "data.value": "38.9 % of DMSO"
  },
  {
    "compound": "CCC(C)(C)c1ccc(S(=O)(=O)Nc2ccc3ncsc3c2)cc1",
    "data.value": "33.5 % of DMSO"
  },
  {
    "compound": "NC(=O)c1c(NC(=S)NC(NC(=O)c2ccccc2)C(Cl)(Cl)Cl)sc2c1CCCC2 (stereo not drawn)",
    "data.value": "66.7 % of DMSO"
  },
  {
    "compound": "CC(=O)Nc1cccc(-c2ccc(Nc3cccc(N(C)C)c3)nc2)c1",
    "data.value": "28.3 % of DMSO"
  },
  {
    "compound": "COc1ccc(-c2noc([C@@H]3Cc4[nH]cnc4CN3C(=O)CCC(=O)O)n2)cc1",
    "data.value": "51.6 % of DMSO"
  },
  {
    "compound": "O=C(Nc1sccc1C(=O)N1CCOCC1)C(Sc1ccccc1)c1ccccc1 (stereo not drawn)",
    "data.value": "60.1 % of DMSO"
  },
  {
    "compound": "Cc1ccc(NC(=O)c2cnc(SCc3ccc(F)cc3)n(C)c2=O)cc1C",
    "data.value": "73.8 % of DMSO"
  },
  {
    "compound": "COc1ccc(N(CC(O)CN2CCOCC2)S(=O)(=O)c2ccccc2)cc1 (stereo not drawn)",
    "data.value": "96.3 % of DMSO"
  },
  {
    "compound": "Nc1ccc(Sc2nccnc2N2CCCC2)cc1",
    "data.value": "42.1 % of DMSO"
  }
]

* * *

biological target: γ-secretase complex (Homo sapiens, UniProt P49768); assay: APP-C99 counter assay (GSI reporter assay); type: cell-based; conditions: 14-point; unit inferred; some fits outside of tested concentration range; read-out: approximated IC50s 14p APP-counter assay
Below: a set of entries, each annotated with reported IC50.
metric: IC50

[
  {
    "molecule": "C[C@H](NC(=O)Cc1cc(F)cc(F)c1)C(=O)N[C@@H]1C(=O)N(C)c2ccccc2-c2ccccc21 [YO-01027, reference compound]",
    "metric": "IC50",
    "data.value": "21 nM"
  },
  {
    "molecule": "C[C@H](NC(=O)Cc1cc(F)cc(F)c1)C(=O)N[C@H](C(=O)OC(C)(C)C)c1ccccc1 [DAPT, reference compound]",
    "metric": "IC50",
    "data.value": "400 nM"
  },
  {
    "molecule": "NC(=O)[C@@H](CC1CC1)[C@@H](CCC(F)(F)F)C(=O)N[C@H]1N=C(c2ccccc2)c2cccc(F)c2NC1=O [BMS-983970, reference compound]",
    "metric": "IC50",
    "data.value": "400 nM"
  }
]

* * *

test system: BT-20 cells; assay: Growth inhibition, metabolic activity (CellTiter-Glo); assay type: cell-based; conditions: Homo sapiens; BT-20, six days; read-out: approximated IC50, metabolic activity
metric: IC50 (µM)

[
  {
    "smiles.input": "Cc1ccc2[nH]c3c(c2c1)CCOC31CCN(Cc2ccccc2-c2ccccc2)CC1",
    "metric": "IC50",
    "data.value": 3.2
  }
]

* * *

target: γ-secretase complex (Homo sapiens, UniProt P49768); assay: APP-C99 counter assay (GSI reporter assay); assay type: cell-based; parameters: scale not given here; conditions: area under the 14-point dose-response curve; replicates averaged
Below: a set of entries, each annotated with reported AUC APP.
metric: AUC APP

[
  {
    "molecule": "CC(=O)N1CCc2sccc2C1c1ccccc1NC(=O)c1ccco1 (stereo not drawn)",
    "target": "γ-secretase complex (Homo sapiens, UniProt P49768)",
    "metric": "AUC APP",
    "data.value": 642.7
  },
  {
    "molecule": "Cc1cc(C)c2[nH]c(C(=O)N[C@H](c3ccccc3)c3ccnn3C)c(C)c2c1",
    "target": "γ-secretase complex (Homo sapiens, UniProt P49768)",
    "metric": "AUC APP",
    "data.value": 698.8
  },
  {
    "molecule": "c1ccc(Nc2nc(-c3ccc(Oc4ccccc4)cc3)cn3ccnc23)cc1",
    "target": "γ-secretase complex (Homo sapiens, UniProt P49768)",
    "metric": "AUC APP",
    "data.value": 491.7
  },
  {
    "molecule": "Cc1ccc(-c2noc([C@@H]3Cc4[nH]cnc4CN3C(=O)CCC(=O)O)n2)cc1",
    "target": "γ-secretase complex (Homo sapiens, UniProt P49768)",
    "metric": "AUC APP",
    "data.value": 662.9
  },
  {
    "molecule": "COc1cc(Nc2nc(-c3cccc(NC(C)=O)c3)cn3ccnc23)cc(OC)c1OC",
    "target": "γ-secretase complex (Homo sapiens, UniProt P49768)",
    "metric": "AUC APP",
    "data.value": 493.6
  },
  {
    "molecule": "Oc1cc(-c2ccccc2)nn1-c1nc2ccccc2s1",
    "target": "γ-secretase complex (Homo sapiens, UniProt P49768)",
    "metric": "AUC APP",
    "data.value": 668.5
  },
  {
    "molecule": "CCOC(=O)c1c(NC(=O)NCc2cccnc2)sc2c1CCC2",
    "target": "γ-secretase complex (Homo sapiens, UniProt P49768)",
    "metric": "AUC APP",
    "data.value": 444.5
  },
  {
    "molecule": "CC(C)C(=O)Nc1sc2c(c1C(=O)NCc1cccnc1)CCC2",
    "target": "γ-secretase complex (Homo sapiens, UniProt P49768)",
    "metric": "AUC APP",
    "data.value": 480.2
  },
  {
    "molecule": "O=C1NC(c2cccnc2)Nc2sc3c(c21)CCCC3 (stereo not drawn)",
    "target": "γ-secretase complex (Homo sapiens, UniProt P49768)",
    "metric": "AUC APP",
    "data.value": 497.7
  }
]

* * *

test system: Notch signalling; assay: Notch reporter assay (12xCSL firefly luciferase / renilla luciferase, HEK293T Notch1ΔE reporter cell line clone #A1-11); type: cell-based; details: Homo sapiens, HEK-293T; 1,25µM; 3-point DR confirmation screen, Notch reporter assay; read-out: inhibitor ratio in % of DMSO in 3 point DR
Please use Met whenever activity is not below 90%, and Not met whenever it is.

[
  {
    "molecule": "CCc1c(C(=O)N(C)Cc2cnn(C(C)C)c2)[nH]c2ccccc12",
    "class.label": "Not met"
  },
  {
    "molecule": "Cc1[nH]c2cccc(C(=O)N3CCCCC3CCNC(=O)c3ccccc3)c2c1C (centres unmarked)",
    "class.label": "Met"
  },
  {
    "molecule": "Cc1nn(-c2nc3ccccc3s2)c(O)c1C1OC(=O)c2ccccc21 (centres unmarked)",
    "class.label": "Not met"
  },
  {
    "molecule": "COc1cccc(CNc2ccc(N3CCOCC3)cc2)c1OCc1ccccc1F",
    "class.label": "Met"
  },
  {
    "molecule": "CCOc1ccccc1-c1ccccc1NC(=O)c1ccc2c(c1)ncn2C1CC1",
    "class.label": "Met"
  },
  {
    "molecule": "COc1cccc(CNc2ccc(N3CCCCC3)cc2)c1OCc1cccs1",
    "class.label": "Not met"
  },
  {
    "molecule": "Cc1ccc2[nH]c3c(c2c1)CCOC31CCN(Cc2ccccc2-c2ccccc2)CC1",
    "class.label": "Not met"
  },
  {
    "molecule": "Cc1ccccc1Nc1nc(N)nc(CN2CCCC(C(F)(F)F)C2)n1 (centres unmarked)",
    "class.label": "Met"
  }
]

* * *

Target: DHODH (Homo sapiens, UniProt Q02127)
Construct: purchased Reaction Biology (contract assay)
Sequence (Q02127 whole entry): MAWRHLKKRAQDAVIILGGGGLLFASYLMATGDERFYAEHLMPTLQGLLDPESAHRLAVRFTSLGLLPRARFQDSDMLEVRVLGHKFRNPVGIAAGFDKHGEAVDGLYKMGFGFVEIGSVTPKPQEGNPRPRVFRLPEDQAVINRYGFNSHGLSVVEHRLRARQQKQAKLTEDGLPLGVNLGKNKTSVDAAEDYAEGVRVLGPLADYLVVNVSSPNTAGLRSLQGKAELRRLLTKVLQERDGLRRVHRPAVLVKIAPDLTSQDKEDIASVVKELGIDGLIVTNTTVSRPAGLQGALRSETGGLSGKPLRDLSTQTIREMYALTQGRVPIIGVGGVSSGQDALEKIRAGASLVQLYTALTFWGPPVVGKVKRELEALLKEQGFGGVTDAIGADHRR
Assay: DHODH enzyme activity assay (Resorufin fluorescence, Reaction Biology)
Type: biochemical
Settings: dose-range [M] 4.00E-05- 2.03E-09, 3 steps; read-out: IC50
Method: DHODH enzyme activity was determined via fluorescence-based quantification (Resorufin fluorescence as endpoint measurement) at Reaction Biology. Reference compound BAY2402234 was measured in singletons in two biological replicates and compounds were measured in technical replicates within the indicated dose-ranges. […]
Below: a set of entries, each annotated with reported IC50.

[
  {
    "molecule": "CCc1c(C(=O)N(C)Cc2cnn(C(C)C)c2)[nH]c2ccccc12 [compound A]",
    "target": "DHODH (Homo sapiens, UniProt Q02127)",
    "IC50": "2.9e-05 M"
  },
  {
    "molecule": "Cc1nn(-c2nc3ccccc3s2)c(O)c1C1OC(=O)c2ccccc21 (stereo not shown) [compound E]",
    "target": "DHODH (Homo sapiens, UniProt Q02127)",
    "IC50": "3.7e-05 M"
  },
  {
    "molecule": "NC(=O)c1c(NC(=O)NCc2cccnc2)sc2c1CCC2 [compound D]",
    "target": "DHODH (Homo sapiens, UniProt Q02127)",
    "IC50": "9.6e-06 M"
  },
  {
    "molecule": "Cc1ccc2[nH]c3c(c2c1)CCOC31CCN(Cc2ccccc2-c2ccccc2)CC1 [compound B]",
    "target": "DHODH (Homo sapiens, UniProt Q02127)",
    "IC50": "2.2e-06 M"
  }
]

Measured values drawn from paper PMC13242511 for this set.
